The reported numbers originate from paper PMC9136259.

A set of molecules tested on xanthine oxidase (XOD, from bovine milk) (Bos taurus, UniProt P80457), with measured pIC50:
Scale for pIC50: -log10 of concentration given in mol/L; no unit attached.

O=Cc1ccc(O)cc1 [4-Hydroxybenzaldehyde] : 5.57
OCCc1ccc(O)cc1 [4-Hydroxyphenethyl alcohol] : 1.61

Turning now to a further molecule:
Measured pIC50, CC(=O)c1c(O)cccc1O [2,6-Dihydroxyacetophenone] : 2.91
